System: Caco-2 cell monolayers
assayProcedure: Transport experiment with Caco-2 cell monolayers
experimentalParameters: intestinal bacterial transformed AEOF; first of three lines per compound (lowest concentration; 10, 20, 30 mg/mL)
Label rule, in plain words: After transported with Caco-2 cell monolayers of 0.2 µg/mL and up is y, under 0.2 µg/mL is n.

compound | class
O=c1cc(-c2ccc(O)c(O)c2)oc2c([C@@H]3O[C@H](CO)[C@@H](O)[C@H](O)[C@H]3O)c(O)cc(O)c12 [orientin] | y
COc1cc(C(=O)O)cc(CC=C(C)C)c1OC1OC(CO)C(O)C(O)C1O (stereo not drawn) [trollioside] | n
O=c1c(O)c(-c2ccc(O)c(O)c2)oc2cc(O)cc(O)c12 [quercetin] | n
COc1ccc(C(=O)O)cc1OC [veratric acid] | y
O=C1CC[C@H]2c3cc(O)c(O)cc3CCN12 [trolline] | y
O=c1cc(-c2ccc(O)cc2)oc2c([C@@H]3O[C@H](CO)[C@@H](O)[C@H](O)[C@H]3O)c(O)cc(O)c12 [vitexin] | n
O=c1cc(-c2ccc(O)c(O)c2)oc2c(C3OC(CO)C(O)C(O)C3OC3OC(CO)C(O)C(O)C3O)c(O)cc(O)c12 [2″-O-β-L-galactopyranosylorientin] | y
O=c1c(O[C@@H]2O[C@H](CO)[C@@H](O)[C@H](O)[C@H]2O)c(-c2ccc(O)c(O)c2)oc2cc(O)cc(O)c12 [isoquercetin] | n
COc1cc(C(=O)O)cc(CC=C(C)C)c1O [proglobeflowery acid] | y

* * *

System: everted gut sacs (jejunum)
assayProcedure: Absorption experiment with everted gut sacs
experimentalParameters: intestinal bacterial transformed AEOF; second of three lines per compound (middle concentration, not given)
The following molecules are shown together with reported After transported with everted gut sacs values.

molecule | unitTag | After transported with everted gut sacs
O=c1c(O)c(-c2ccc(O)c(O)c2)oc2cc(O)cc(O)c12 [quercetin] | µg/mL | 0.00
COc1ccc(C(=O)O)cc1OC [veratric acid] | µg/mL | 1.64
COc1cc(C(=O)O)cc(CC=C(C)C)c1OC1OC(CO)C(O)C(O)C1O (stereo not shown) [trollioside] | µg/mL | 0.00
O=c1c(O[C@@H]2O[C@H](CO)[C@@H](O)[C@H](O)[C@H]2O)c(-c2ccc(O)c(O)c2)oc2cc(O)cc(O)c12 [isoquercetin] | µg/mL | 0.00

* * *

System: everted gut sacs (jejunum)
assayProcedure: Absorption experiment with everted gut sacs
experimentalParameters: intestinal bacterial transformed AEOF; first of three lines per compound (lowest concentration; 10, 20, 30 mg/mL)
The following compounds are listed with their measured After transported with everted gut sacs values.

compound | unitTag | After transported with everted gut sacs
COc1ccc(C(=O)O)cc1OC | µg/mL | 0.59
O=c1cc(-c2ccc(O)c(O)c2)oc2c(C3OC(CO)C(O)C(O)C3OC3OC(CO)C(O)C(O)C3O)c(O)cc(O)c12 (centres unmarked) | µg/mL | 1.57
COc1cc(C(=O)O)cc(CC=C(C)C)c1O | µg/mL | 1.95
O=c1cc(-c2ccc(O)cc2)oc2c([C@@H]3O[C@H](CO)[C@@H](O)[C@H](O)[C@H]3O)c(O)cc(O)c12 | µg/mL | 0.11
COc1cc(C(=O)O)cc(CC=C(C)C)c1OC1OC(CO)C(O)C(O)C1O (centres unmarked) [trollioside] | µg/mL | 0.00
